- test_target: CFTR-mediated chloride transport (Homo sapiens)
- Sequence (P13569 whole entry, looked up): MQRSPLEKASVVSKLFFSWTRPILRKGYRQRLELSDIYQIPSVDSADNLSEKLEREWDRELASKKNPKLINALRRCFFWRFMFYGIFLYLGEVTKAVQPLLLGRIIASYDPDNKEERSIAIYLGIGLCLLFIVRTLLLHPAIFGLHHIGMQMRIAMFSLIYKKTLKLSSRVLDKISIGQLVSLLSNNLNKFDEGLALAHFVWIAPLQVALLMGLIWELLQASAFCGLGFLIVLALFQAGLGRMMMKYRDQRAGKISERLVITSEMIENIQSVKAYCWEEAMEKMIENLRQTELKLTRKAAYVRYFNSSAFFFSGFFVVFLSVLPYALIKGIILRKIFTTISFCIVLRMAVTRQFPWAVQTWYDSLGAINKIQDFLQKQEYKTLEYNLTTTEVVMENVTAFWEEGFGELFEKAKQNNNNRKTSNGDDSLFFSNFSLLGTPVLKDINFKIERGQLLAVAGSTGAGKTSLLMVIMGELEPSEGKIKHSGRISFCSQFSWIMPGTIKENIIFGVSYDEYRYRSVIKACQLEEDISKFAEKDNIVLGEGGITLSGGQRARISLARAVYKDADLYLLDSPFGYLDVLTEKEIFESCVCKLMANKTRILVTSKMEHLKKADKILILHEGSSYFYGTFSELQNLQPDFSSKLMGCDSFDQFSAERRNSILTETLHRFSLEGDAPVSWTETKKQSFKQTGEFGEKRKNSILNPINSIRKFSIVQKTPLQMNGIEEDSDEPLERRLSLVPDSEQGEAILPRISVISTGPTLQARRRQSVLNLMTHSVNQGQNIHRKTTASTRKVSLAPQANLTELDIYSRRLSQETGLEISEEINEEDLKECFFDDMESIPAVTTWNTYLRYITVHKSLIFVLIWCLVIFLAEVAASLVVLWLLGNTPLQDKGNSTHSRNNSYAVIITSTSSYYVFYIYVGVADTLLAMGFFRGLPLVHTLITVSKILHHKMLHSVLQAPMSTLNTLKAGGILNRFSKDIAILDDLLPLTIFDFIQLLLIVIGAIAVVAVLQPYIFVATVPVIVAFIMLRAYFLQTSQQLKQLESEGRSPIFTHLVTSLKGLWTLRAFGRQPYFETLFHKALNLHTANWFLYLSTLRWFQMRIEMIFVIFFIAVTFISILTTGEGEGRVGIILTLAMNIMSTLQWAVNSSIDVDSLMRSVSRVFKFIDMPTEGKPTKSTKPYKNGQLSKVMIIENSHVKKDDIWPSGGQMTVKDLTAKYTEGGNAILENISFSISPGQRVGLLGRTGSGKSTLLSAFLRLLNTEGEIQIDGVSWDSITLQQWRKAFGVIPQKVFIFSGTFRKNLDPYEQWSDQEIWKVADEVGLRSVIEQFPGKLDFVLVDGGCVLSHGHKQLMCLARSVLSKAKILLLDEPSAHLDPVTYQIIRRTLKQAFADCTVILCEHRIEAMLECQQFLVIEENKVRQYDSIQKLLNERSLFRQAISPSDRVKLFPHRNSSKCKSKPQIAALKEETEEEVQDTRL
- Type: cell-based
- particulars: enteroid cells incubated with test compound 18-24 hours; acute 10 μM forskolin and 300 nM Compound III; % of chloride transport with 3 μM Compound A, 3 μM Compound II and 300 nM acute Compound III triple combination control

| molecule | Max. Activity |
| --- | --- |
| CC1(C)C[C@@H]2CCCNc3cc(O)cc(n3)S(=O)(=O)NC(=O)c3ccc(-n4ccc(OCCCC5(C(F)(F)F)CC5)n4)nc3N1C2 | +++ (+++ is >60%) |
| Cc1nn2cc1S(=O)(=O)NC(=O)c1ccc(-n3ccc(OCC(C)(C)C(F)(F)F)n3)nc1N1CC(CCC2)CC1(C)C (stereo not shown) | + (+ is <30%) |
| CC1(C)C[C@H]2CCNc3cccc(n3)S(=O)(=O)NC(=O)c3ccc(-n4ccc(OCCC5(C(F)(F)F)CC5)n4)nc3N1C2 (single isomer, unassigned) [Compound 26] | +++ (+++ is >60%) |
| CC1(C)C[C@@H]2CCCNc3cccc(n3)S(=O)(=O)NC(=O)c3ccc(N4CCN(CCCC5(C(F)(F)F)CC5)C4=O)nc3N1C2 | +++ (+++ is >60%) |
| CC1(C)CC[C@H]2CNc3cccc(n3)S(=O)(=O)NC(=O)c3ccc(-n4ccc(OCCC5(C(F)(F)F)CC5)n4)nc3N21 (single isomer, unassigned) [Compound 51] | + (+ is <30%) |
| CC1(C)C[C@H]2CCCn3cc(cn3)S(=O)(=O)NC(=O)c3ccc(-n4ccc(OCCC5(C(F)(F)F)CC5)n4)nc3N1C2 (single isomer, unassigned) [Compound 119] | +++ (+++ is >60%) |
| CC1(CC2CCN(c3ccc4c(n3)N3C[C@@H](CCCNc5cccc(n5)S(=O)(=O)NC4=O)CC3(C)C)C2=O)CCCCC1 (stereo partly shown) | ++ (++ is 30-60%) |
| CC1(C)CC2CCCOc3cccc(n3)S(=O)(=O)NC(=O)c3ccc(-n4ccc(OCCC5(C(F)(F)F)CC5)n4)nc3N1C2 (racemic) | ++ (++ is 30-60%) |
| CC1(C)C[C@H]2CCCn3ccc(n3)S(=O)(=O)NC(=O)c3ccc(-n4ccc(OCCC5C(C)(C)C5(C)C)n4)nc3N1C2 (single isomer, unassigned) [Compound 206] | + (+ is <30%) |
| CC1(C)C[C@H]2CCCCNc3cccc(n3)S(=O)(=O)NC(=O)c3ccc(-n4ccc(OCCC5(C(F)(F)F)CC5)n4)nc3N1C2 (single isomer, unassigned) [Compound 30] | +++ (+++ is >60%) |
| CC1(C)C[C@H]2CCCCn3cc(cn3)S(=O)(=O)NC(=O)c3ccc(-n4ccc(OCCC5(C(F)(F)F)CC5)n4)nc3N1C2 (single isomer, unassigned) [Compound 134] | + (+ is <30%) |
| CC1(C)C[C@@H]2CCCNc3cccc(n3)S(=O)(=O)NC(=O)c3ccc(-n4ccc(OC[C@@H](O)CC5(C(F)(F)F)CC5)n4)nc3N1C2 (single isomer, unassigned) [Compound 283] | +++ (+++ is >60%) |
| Cc1c2cnn1CCCC1CN(c3nc(-n4ccc(OCCC5(C(F)(F)F)CC5)n4)ccc3C(=O)NS2(=O)=O)C(C)(C)C1 (stereo not shown) | ++ (++ is 30-60%) |

Where do the numbers come from? From patent US11866450B2.
